Entry source: paper PMC8991199

Target protein (sequence): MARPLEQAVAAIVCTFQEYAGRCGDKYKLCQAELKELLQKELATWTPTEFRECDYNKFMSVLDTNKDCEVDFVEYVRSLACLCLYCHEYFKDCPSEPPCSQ
value kind: pKd
# log scale: pKd equals minus log10 of the concentration in mol/L

[ask] Return pKd for the following molecule: CC[C@H](C)[C@@H](CC(=O)N[C@H]1CCCC[C@@H]1C(=O)N[C@H]1CCCC[C@@H]1C(=O)N[C@H](CC(=O)N[C@H]1CCCC[C@@H]1C(=O)NCC(=O)N[C@@H](CCCCNC(=O)c1ccc2c(c1)C1(OC2=O)c2ccc(O)cc2Oc2cc(O)ccc21)C(N)=O)Cc1ccccc1)NC(=O)[C@H]1CCCC[C@@H]1N
[reply] 3.74

====

assay target: S100P (Homo sapiens, UniProt P25815)
Sequence (P25815 1-95): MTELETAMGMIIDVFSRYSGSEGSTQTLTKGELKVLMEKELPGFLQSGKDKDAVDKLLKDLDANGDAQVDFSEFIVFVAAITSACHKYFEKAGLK
test name: direct fluorescence polarization (FP), S100P
condition parameters: 50 nM labeled foldamer, 20 mM HEPES pH 7.5, 150 mM NaCl, 1 mM CaCl2, 0.5 mM TCEP, 0.01% Tween20, quadratic fit, mean ± SEM, three technical repeats, threshold 1 mM
So I've got a bunch of molecules here, and I need their pKd values.
Just so you know, pKd here is -log10 of the concentration in molar units; reply with that number alone.

[ask] Dear colleague, please send me the reported pKd for CC(C)C[C@@H](CC(=O)N[C@H]1CCCC[C@@H]1C(=O)NCC(=O)N[C@@H](CCCCNC(=O)c1ccc2c(c1)C1(OC2=O)c2ccc(O)cc2Oc2cc(O)ccc21)C(N)=O)NC(=O)[C@H]1CCCC[C@@H]1NC(=O)[C@H]1CCCC[C@@H]1NC(=O)C[C@H](Cc1c[nH]c2ccccc12)NC(=O)[C@H]1CCCC[C@@H]1N when you can.
[reply] 4.12

[ask] Dear colleague, please send me the reported pKd for NC(=O)[C@H](CCCCNC(=O)c1ccc2c(c1)C1(OC2=O)c2ccc(O)cc2Oc2cc(O)ccc21)NC(=O)CNC(=O)[C@H]1CCCC[C@@H]1NC(=O)C[C@H](Cc1ccccc1)NC(=O)[C@H]1CCCC[C@@H]1NC(=O)[C@H]1CCCC[C@@H]1NC(=O)C[C@H](Cc1ccc(O)cc1)NC(=O)[C@H]1CCCC[C@@H]1N when you can.
[reply] 4.10

====

assay target: S100P (Homo sapiens, UniProt P25815)
Sequence (P25815 1-95): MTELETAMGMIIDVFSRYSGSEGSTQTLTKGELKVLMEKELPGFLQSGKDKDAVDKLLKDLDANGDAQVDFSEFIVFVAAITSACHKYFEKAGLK
test name: direct fluorescence polarization (FP), S100P
condition parameters: 50 nM labeled foldamer, 20 mM HEPES pH 7.5, 150 mM NaCl, 1 mM CaCl2, 0.5 mM TCEP, 0.01% Tween20, quadratic fit, mean ± SEM, three technical repeats, threshold 1 mM
Excerpt: HTP (and also low-throughput) measurements generally need to be validated by an orthogonal approach to eliminate experimental artifacts. […] In this assay, the association of the fluorescently labeled foldamer and the S100 protein of interest is monitored, through the change in polarization of the emitted light by the fluorophore upon the binding event. In direct FP, the presence of the fluorophore might change the binding affinity of some foldamers. […]
pKd: −log10 of the molar value.
So I've got a bunch of compounds here, and I need their pKd values.

[ask] Output pKd of CSCC[C@@H](CC(=O)N[C@H]1CCCC[C@@H]1C(=O)NCC(=O)N[C@@H](CCCCNC(=O)c1ccc2c(c1)C1(OC2=O)c2ccc(O)cc2Oc2cc(O)ccc21)C(N)=O)NC(=O)[C@H]1CCCC[C@@H]1NC(=O)[C@H]1CCCC[C@@H]1NC(=O)C[C@@H](NC(=O)[C@H]1CCCC[C@@H]1N)[C@@H](C)O [fTM]
[reply] < 3.00

[ask] Give me measured pKd, please, for this compound: N=C(N)NCCC[C@@H](CC(=O)N[C@H]1CCCC[C@@H]1C(=O)NCC(=O)N[C@@H](CCCCNC(=O)c1ccc2c(c1)C1(OC2=O)c2ccc(O)cc2Oc2cc(O)ccc21)C(N)=O)NC(=O)[C@H]1CCCC[C@@H]1NC(=O)[C@H]1CCCC[C@@H]1NC(=O)C[C@H](CCCNC(=N)N)NC(=O)[C@H]1CCCC[C@@H]1N [fRR]
[reply] < 3.00

[ask] Give pKd for the following compound: CC(C)C[C@@H](CC(=O)N[C@H]1CCCC[C@@H]1C(=O)NCC(=O)N[C@@H](CCCCNC(=O)c1ccc2c(c1)C1(OC2=O)c2ccc(O)cc2Oc2cc(O)ccc21)C(N)=O)NC(=O)[C@H]1CCCC[C@@H]1NC(=O)[C@H]1CCCC[C@@H]1NC(=O)C[C@@H](NC(=O)[C@H]1CCCC[C@@H]1N)C(C)C [fVL]
[reply] < 3.00
